Recorded values, source patent US20250026743A1.

compounds and their reported IC50
- Measured on: hmGlu5 (Homo sapiens)
- Construct: expressed in transfected cells; host or cells: HEK 293A
- Run description: mGlu5 Ca2+ flux assay in HEK 293A cells (negative allosteric modulation of glutamate EC80 response)
- Assay type: cell-based
- Condition parameters: HEK 293A cells, Ca2+ flux, glutamate EC80; >10,000 = decrease without plateau; read-out: hmGlu5 NAM IC50
- Experimental: HEK 293A cells stably expressing either rat or human mGlu5 were plated in black-walled, clear-bottomed, poly-D-lysine coated 384-well plates in 20 μL of assay medium (DMEM containing 10% dialyzed FBS, 20 mM HEPES, 100 units/mL penicillin/streptomycin plus 250 ng/mL Fungizone, and 1 mM sodium pyruvate) at a density of 20K cells/well. The cells were grown overnight at 37° C. in the presence of 5% CO2. […] Ca^2+ flux was measured using the Functional Drug Screening System (FDSS7000, Hamamatsu, Japan). […]
Just the number in nM, nothing appended.

These recorded examples may help you get a feel for the data.
Smiles code: Cc1nc(-c2n[nH]c(-c3ccc(F)cc3)n2)cc(-c2cncc(F)c2)c1F
IC50 [nM]: 47

Smiles code: Cc1nc(-c2nc(-c3ccc(F)cn3)no2)cc(-c2cncc(F)c2)c1F
IC50 [nM]: 51

Smiles code: Cc1cc(O[C@@H]2CCOC2)cc(-c2noc(-c3nc(C)cs3)n2)n1
IC50 [nM]: 387

Smiles code: Cc1nc(-c2noc(-c3ccc(F)cn3)n2)cc(-c2ccc(C(F)(F)F)nc2)c1F
IC50 [nM]: 1720

Smiles code: Cc1nc(-c2noc(-c3cccc(F)c3)n2)cc(-c2cncc(F)c2)c1F
IC50 [nM]: 2410

Measured IC50, "Cc1ccnc(-c2nc(-c3cc(-c4cnccc4C)c(F)c(C)n3)no2)c1" : 245

Measured IC50, "COc1c(-c2cncc(F)c2)cc(-c2n[nH]c(-c3ccc(F)cc3)n2)nc1C" : 663

Measured IC50, "Fc1ccc(-c2nnc(-c3cc(-c4cncc(F)c4)cc(C(F)F)n3)o2)nc1" : 359

Measured IC50, "Cc1ccncc1-c1cc(-c2noc(-c3cc(F)ccn3)n2)ncc1F" : 744

Measured IC50, "Cc1nc(-c2noc(-c3ccc(F)cn3)n2)cc(-c2cc(F)cnc2Cl)c1F" : 359

Measured IC50, "Cc1cccc(-c2nc(-c3cc(-c4cnccc4C)c(F)c(C)n3)no2)c1" : 69

Measured IC50, "Cc1nc(-c2noc(-c3ccc(F)cn3)n2)cc(-c2cnccc2Cl)c1F" : 109

Measured IC50, "Cc1ccncc1-c1cc(-c2noc(-c3cccc(C#N)c3)n2)nc(C)c1F" : 85

Measured IC50, "Cc1csc(-c2nc(-c3cc(-c4cnccc4C)c(F)c(C)n3)no2)n1" : 97

Measured IC50, "COc1cc(-c2cc(-c3nnc(-c4ccc(F)cn4)o3)nc(C)c2F)ccn1" : 94

====

compounds and their reported IC50
- Measured on: hmGlu5 (Homo sapiens, UniProt P41594)
- Construct: expressed in transfected cells; host or cells: HEK 293A
- Sequence (P41594 21-1212): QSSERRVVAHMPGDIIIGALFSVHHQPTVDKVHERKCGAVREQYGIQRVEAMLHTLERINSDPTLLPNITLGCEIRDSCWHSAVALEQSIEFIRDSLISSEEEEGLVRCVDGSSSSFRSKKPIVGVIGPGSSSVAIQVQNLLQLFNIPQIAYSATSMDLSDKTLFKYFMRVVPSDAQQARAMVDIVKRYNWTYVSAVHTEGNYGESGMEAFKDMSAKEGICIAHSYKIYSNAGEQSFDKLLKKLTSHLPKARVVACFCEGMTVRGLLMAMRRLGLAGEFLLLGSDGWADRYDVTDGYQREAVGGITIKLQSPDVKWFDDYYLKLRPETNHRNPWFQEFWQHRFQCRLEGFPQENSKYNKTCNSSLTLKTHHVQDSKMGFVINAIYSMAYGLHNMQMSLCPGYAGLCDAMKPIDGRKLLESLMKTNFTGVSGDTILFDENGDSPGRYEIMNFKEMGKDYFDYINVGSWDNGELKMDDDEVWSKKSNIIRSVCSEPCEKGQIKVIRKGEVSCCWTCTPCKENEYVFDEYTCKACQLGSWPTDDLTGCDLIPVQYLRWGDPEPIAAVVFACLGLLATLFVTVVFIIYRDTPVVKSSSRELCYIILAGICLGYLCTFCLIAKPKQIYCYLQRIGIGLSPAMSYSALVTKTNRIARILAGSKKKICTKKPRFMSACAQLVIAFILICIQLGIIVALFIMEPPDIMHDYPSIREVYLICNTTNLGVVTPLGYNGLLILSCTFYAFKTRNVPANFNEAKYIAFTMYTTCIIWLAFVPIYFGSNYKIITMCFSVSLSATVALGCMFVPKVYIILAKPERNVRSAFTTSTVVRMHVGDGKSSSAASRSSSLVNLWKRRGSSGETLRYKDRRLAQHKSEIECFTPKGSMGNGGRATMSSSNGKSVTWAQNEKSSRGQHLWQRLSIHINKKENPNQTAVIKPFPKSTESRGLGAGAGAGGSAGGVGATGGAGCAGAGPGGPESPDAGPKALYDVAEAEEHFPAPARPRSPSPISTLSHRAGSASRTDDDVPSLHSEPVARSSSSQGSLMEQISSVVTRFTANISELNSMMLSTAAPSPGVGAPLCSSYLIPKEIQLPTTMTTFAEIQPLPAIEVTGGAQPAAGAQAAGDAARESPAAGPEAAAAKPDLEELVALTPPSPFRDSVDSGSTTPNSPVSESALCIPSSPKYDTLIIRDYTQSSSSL
- Run description: mGlu5 Ca2+ flux assay in HEK 293A cells (negative allosteric modulation of glutamate EC80 response)
- Format: cell-based
- Condition parameters: HEK 293A cells, Ca2+ flux, glutamate EC80; >10,000 = decrease without plateau; read-out: hmGlu5 NAM IC50

These recorded examples may help you get a feel for the data.
Smiles code: COCCOc1c(-c2cncc(F)c2)cc(-c2noc(-c3ccc(F)cn3)n2)nc1C
Recorded result: 562 nM

Smiles code: Cc1nc(-c2nnc(-c3ccc(F)cc3)o2)cc(-c2cncc(F)c2)c1F
Recorded result: 778 nM

Smiles code: Cc1cccc(-c2nnc(-c3cc(-c4cncc(F)c4)c(F)c(C)n3)o2)n1
Recorded result: > 10000 nM

Measured IC50, "Cc1nc(-c2noc(-c3ccc(F)cn3)n2)cc(-c2cnn(C(F)F)c2)c1F" : 159 nM

Measured IC50, "Cc1ccncc1-c1cc(-c2noc(-c3ccc(F)cn3)n2)nc(C)c1F" : 98 nM

Measured IC50, "Cc1nc(-c2nc(-c3ccc(F)cn3)no2)cc(-c2cnn(C(F)F)c2)c1F" : 328 nM

====

compounds and their reported pIC50
- Measured on: hmGlu5 (Homo sapiens)
- Construct: expressed in transfected cells; host or cells: HEK 293A
- Run description: mGlu5 Ca2+ flux assay in HEK 293A cells (negative allosteric modulation of glutamate EC80 response)
- Assay type: cell-based
- Condition parameters: HEK 293A cells, Ca2+ flux, glutamate EC80; >10,000 = decrease without plateau; read-out: hmGlu5 NAM IC50
Keep in mind that pIC50 stands for -log10 of concentration in molar terms.

Measured pIC50, Cc1nc(-c2nnc(-c3ccccn3)o2)cc(-c2cncc(F)c2)c1F [Compound 79] : 6.17

Measured pIC50, Cc1nc(-c2noc(-c3ccc(F)cn3)n2)cc(-c2cncc(C(F)(F)F)c2)c1F [Compound 33] : 5.99

====

- Measured on: hmGlu5 (Homo sapiens, UniProt P41594)
- Construct: expressed in transfected cells; host or cells: HEK 293A
- Run description: mGlu5 Ca2+ flux assay in HEK 293A cells (negative allosteric modulation of glutamate EC80 response)
- Assay type: cell-based
- Condition parameters: HEK 293A cells, Ca2+ flux, glutamate EC80; >10,000 = decrease without plateau; read-out: hmGlu5 NAM IC50
Parameter: log10(IC50) (log10 of the value in nM)
Could you please treat all values as log10 of IC50 in nM?

These recorded examples may help you get a feel for the data.
Smiles code: COc1ccnc(-c2nc(-c3cc(-c4cnccc4C)c(F)c(C)n3)no2)c1
Recorded result: 3.53
--
Smiles code: Cc1ccncc1-c1cc(-c2noc(-c3cccc(Cl)c3)n2)nc(C)c1F
Recorded result: 2.07
--
Smiles code: COc1ccncc1-c1cc(-c2nnc(-c3ccc(F)cn3)o2)nc(C)c1F
Recorded result: 2.47

Measured log10(IC50), "Cc1cncc(-c2nc(-c3cc(-c4cnccc4C)c(F)c(C)n3)no2)c1" : 3.63

Measured log10(IC50), "Cc1csc(-c2nc(-c3cc(-c4cnc(C)s4)c(F)c(C)n3)no2)n1" : 3.05

Measured log10(IC50), "Cc1nc(-c2noc(-c3ccc(F)cn3)n2)cc(-c2cc(Cl)cc(C#N)c2)c1F" : 2.31

====

- Measured on: hmGlu5 (Homo sapiens)
- Construct: expressed in transfected cells; host or cells: HEK 293A
- Run description: mGlu5 Ca2+ flux assay in HEK 293A cells (negative allosteric modulation of glutamate EC80 response)
- Assay type: cell-based
- Condition parameters: HEK293-A; % Glu max at 30 μM; read-out: hmGlu5 NAM Emin (%)
Parameter: remaining activity at 30 µM (%)
Just the number in %, nothing appended.

These recorded examples may help you get a feel for the data.
Smiles code: Cc1ccncc1-c1cc(-c2nnc(-c3cccc(F)c3)o2)nc(C)c1F
remaining activity at 30 µM, %: 2

Smiles code: CCn1cc(-c2cc(-c3nnc(-c4ccc(F)cn4)o3)nc(C)c2F)cn1
remaining activity at 30 µM, %: 2

Smiles code: Cc1nc(-c2noc(-c3ccncc3)n2)cc(-c2cncc(F)c2)c1F
remaining activity at 30 µM, %: 12

Smiles code: Cc1ccncc1-c1cc(-c2noc(-c3ccc(F)cn3)n2)ncc1F
remaining activity at 30 µM, %: 3

Lab note: next compound to report on.
Measured remaining activity at 30 µM, "Cc1ccncc1-c1cc(-c2noc(-c3ncccc3F)n2)ncc1F" : 25

====

- Measured on: hmGlu5 (Homo sapiens, UniProt P41594)
- Construct: expressed in transfected cells; host or cells: HEK 293A
- Run description: mGlu5 Ca2+ flux assay in HEK 293A cells (negative allosteric modulation of glutamate EC80 response)
- Format: cell-based
- Condition parameters: HEK293-A; % Glu max at 30 μM; read-out: hmGlu5 NAM Emin (%)
Parameter: remaining activity at 30 µM (%)
Just the number in %, nothing appended.

These recorded examples may help you get a feel for the data.
Smiles code: Cc1ccncc1-c1cc(-c2noc(-c3ccc(Cl)cn3)n2)nc(C)c1F
Measured on: hmGlu5 (Homo sapiens, UniProt P41594)
Recorded result: 2
--
Smiles code: Fc1ccc(-c2nnc(-c3cc(-c4cncc(F)c4)cc(C(F)F)n3)o2)nc1
Measured on: hmGlu5 (Homo sapiens, UniProt P41594)
Recorded result: 1
--
Smiles code: Cc1nc(-c2noc(-c3ccc(F)cn3)n2)cc(-c2cc(F)cnc2Cl)c1F
Measured on: hmGlu5 (Homo sapiens, UniProt P41594)
Recorded result: 3

Lab note: next compound to report on.
Measured remaining activity at 30 µM, "Cc1ccncc1-c1cc(-c2noc(-c3cccc(Cl)c3)n2)nc(C)c1F" : 2
